experiment: Antiproliferative activity against human HUVEC cells assessed as cell growth at 10 uM incubated for 48 hrs by MTT assay relative to control; assay type: toxicity, cell-based; settings: read-out: Activity
Quantity Kind: viability at 48 h, 10 µM (%)
Entry rule: numbers only, all in %.

Solved entries:
CCCC(O)Cn1nc(Nc2ccc(C)cc2)c(C(=O)OCC)c1N (stereo unspecified) : 96
CCOC(=O)c1c(Nc2cccc(Cl)c2)nn(CC(O)c2ccccc2)c1N (stereo unspecified) : 93
CCOC(=O)c1c(Nc2ccc(OC)cc2)nn(CC(O)c2ccccc2)c1N (stereo unspecified) : 99
CCCC(O)Cn1nc(Nc2cccc(Cl)c2)c(C(=O)OCC)c1N (stereo unspecified) : 97
CCCC(O)Cn1nc(Nc2ccccc2Cl)c(C(=O)OCC)c1N (stereo unspecified) : 95
CCCC(O)Cn1nc(Nc2ccc(Cl)c(Cl)c2)c(C(=O)OCC)c1N (stereo unspecified) : 93
CCCC(O)Cn1nc(Nc2ccc(OC)cc2)c(C(=O)OCC)c1N (stereo unspecified) : 95
CCCC(O)Cn1nc(Nc2ccccc2)c(C(=O)OCC)c1N (stereo unspecified) : 100

Problem: What viability at 48 h, 10 µM value was documented for this molecule, CCCC(O)Cn1nc(Nc2cccc3ccccc23)c(C(=O)OCC)c1N (stereo unspecified) ?
Result: 94

Problem: Then this molecule: CCOC(=O)c1c(Nc2cccc3ccccc23)nn(CC(O)c2ccccc2)c1N (stereo unspecified)
Result: 98

Problem: Then this molecule: CCOC(=O)c1c(Nc2ccc(Cl)c(Cl)c2)nn(CC(O)c2ccccc2)c1N (stereo unspecified)
Result: 93

###

Parameter: Activity. Scope: all listed entries.
test system: HUVEC; test: Anti-angiogenetic activity in human HUVEC cells assessed as number of tube branching points at 10 uM incubated for 12 hrs by microscopy; type: functional

Solved entries:
CCCC(O)Cn1nc(Nc2ccccc2)c(C(=O)OCC)c1N (stereo unspecified) : <15
CCCC(O)Cn1ncc(C(=O)OCC)c1NC(=O)Nc1cccc(C(F)(F)F)c1 (stereo unspecified) : 19
CCOC(=O)c1c(Nc2ccc(C)cc2)nn(CC(O)c2ccccc2)c1N (stereo unspecified) : 17
CCOC(=O)c1c(Nc2cccc3ccccc23)nn(CC(O)c2ccccc2)c1N (stereo unspecified) : <15
CCCC(O)Cn1nc(Nc2ccc(C)cc2)c(C(=O)OCC)c1N (stereo unspecified) : <15

Now consider the entry below.
Problem: What Activity value was documented for this compound, CCCC(O)Cn1nc(Nc2cccc3ccccc23)c(C(=O)OCC)c1N (stereo unspecified) ?
Result: <15

###

assay: Antiproliferative activity against human GM06114 cells assessed as cell growth at 10 uM incubated for 48 hrs by MTT assay relative to control; assay type: toxicity, cell-based; settings: read-out: Activity
viability at 48 h, 10 µM under 80% gets criterion met, anything at or over 80% gets criterion not met.

The following compounds have reported results that may help.
CCOC(=O)c1c(Nc2ccccc2Cl)nn(CC(O)c2ccccc2)c1N (stereo unspecified) : criterion met
CCCC(O)Cn1nc(Nc2ccc(C)cc2)c(C(=O)OCC)c1N (stereo unspecified) : criterion met
CCOC(=O)c1c(Nc2ccc(OC)cc2)nn(CC(O)c2ccccc2)c1N (stereo unspecified) : criterion met

Problem: Does this compound meet the criterion viability at 48 h, 10 µM < 80%? CCCC(O)Cn1nc(Nc2ccc(OC)cc2)c(C(=O)OCC)c1N (stereo unspecified)
Result: criterion met

Problem: Then this compound: CCCC(O)Cn1nc(Nc2cccc(C(F)(F)F)c2)c(C(=O)OCC)c1N (stereo unspecified)
Result: criterion met

Problem: Then this compound: CCCC(O)Cn1nc(Nc2ccc(Cl)c(Cl)c2)c(C(=O)OCC)c1N (stereo unspecified)
Result: criterion not met

Problem: Then this compound: CCOC(=O)c1c(Nc2ccc(Cl)c(Cl)c2)nn(CC(O)c2ccccc2)c1N (stereo unspecified)
Result: criterion met

Problem: Then this compound: CCCC(O)Cn1nc(Nc2ccccc2Cl)c(C(=O)OCC)c1N (stereo unspecified)
Result: criterion not met

Problem: Then this compound: CCOC(=O)c1c(Nc2cccc(Cl)c2)nn(CC(O)c2ccccc2)c1N (stereo unspecified)
Result: criterion met

Problem: Then this compound: CCCC(O)Cn1nc(Nc2ccccc2)c(C(=O)OCC)c1N (stereo unspecified)
Result: criterion not met
